# assayed_system: Pro-neuregulin-1, membrane-bound isoform (Homo sapiens)
# assay_procedure: NRG1 binders on small-molecule microarrays, primary screen, psychiatric disease protein project, biochemical, small-molecule microarray, fluorescence 635/667 (AID 1075);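 note: score combines 667 nm spot fluorescence with signal to noise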
# assay_context: NRG1 binding, 635 nm fluorescence, higher = more signal
Threshold rule: composite z-score greater than or equal to 1 is Yes; below that, No.

- COc1cccc(C)c1NC(=O)O[C@H]1[C@H](OC(=O)Nc2ccccc2-c2ccccc2)[C@@H](OC(=O)Nc2ccccc2-c2ccccc2)[C@@H](OC)O[C@@H]1CO: Yes
- C=C(COC)/C(=C/C[C@@H](OC(=O)c1ccncc1)c1ccccc1OCCO)c1cnc2ccccc2c1: No
- O=C1OCC=C[C@H]2OC34C=CCN(Cn5nnc6ccccc65)C(=O)[C@H]3N(CCO)C(=O)[C@@H]4[C@@H]12 (stereo partly drawn): No
- O=C(N1CCOCC1)[C@]1(CCS(=O)(=O)c2ccccc2)N=C(c2ccc(OCCCO)cc2)O[C@@H]1c1ccccc1: Yes
- COc1ccc(NN2C(C(O)c3ccc(F)cc3)C=CC3C(=O)N(C4CCCCC4)C(=O)C32)cc1 (stereo not drawn): Yes
- CC1(C)OB(/C=C\CC(OC(=O)c2ccncc2)c2ccccc2)OC1(C)C (stereo not drawn): No
- CCCCCCc1nc(Cc2cc(OC)c(OC)c(OC)c2)c(C)c2c1[Si](C(C)C)(C(C)C)OC2: No

---

The following molecules are listed with their measured composite z-score values.
# assay_procedure: binders of probe aFGF2 on microarray, primary screen, stem cell growth factor project, biochemical, small-molecule microarray, fluorescence 635/667 (AID 1067);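 note: measures binding of biotinylated aFGF2 protein to printed compounds on slides; z-score merges feature fluorescence and signal-to-noise across triplicate slides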
# assay_context: higher = more signal
outcome_measure: composite z-score

* CC(C)C[C@H]1NC(=O)CNC(=O)[C@@]23C(=O)N[C@@H](Cc4ccccc4)C2[C@H](C)[C@@]2(C)O[C@H]2C3/C=C/C/C=C\CNC1=O (stereo partly drawn) | -0.159
* C=C(CC1([C@@H](NP(=O)(c2ccccc2)c2ccccc2)[C@H]2C[C@@H]2CCCC)CC1)c1cccc(OC)c1 | 0.112
* COC(=O)C(CC#Cc1ccc2c(c1)[C@]1(C(=O)N2)[C@H](c2ccc(OCCO)cc2)N2[C@H](c3ccccc3)[C@H](c3ccccc3)OC(=O)[C@H]2[C@@H]1C(N)=O)C(=O)OC | 0.187

---

# assayed_system: Dickkopf-related protein 1 (Homo sapiens)
# assay_procedure: DKK1 binders on small-molecule microarrays, primary screen, biochemical, small-molecule microarray, 635 nm fluorescence scan (AID 1106);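 note: score merges emission near 667 nm with signal to noise over three replicate slides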
# assay_context: DKK1 binding, higher = more signal
Threshold rule: composite z-score greater than or equal to 0.1 is yes (1); below that, no (0).

- COc1c(C)cc(-c2nc(-c3ccccc3)c3c(c2C)CO[Si]3(C(C)C)C(C)C)cc1C: yes (1)
- CC(=O)NCCCC[C@@H]1NC(=O)[C@H]2C[C@@H](C(=O)NCCCCCN)[C@@H](c3ccc(O)cc3)N2C1=O: yes (1)
- C=CCNC(=O)[C@H]1[C@@H]2C(=O)O[C@@H](c3ccccc3)[C@@H](c3ccccc3)N2[C@@H](c2ccc(O)cc2)[C@]12C(=O)Nc1ccccc12: no (0)
- COc1ccc(NN2C(C(O)c3ccc(F)cc3)C=CC3C(=O)N(C4CCCCC4)C(=O)C32)cc1 (configuration not stated): yes (1)
- COCCOC(=O)N1C(=O)[C@@]2(c3cc(C#CCCO)ccc31)[C@H](C(=O)N1CCN(c3ncccn3)CC1)[C@H]1C(=O)O[C@H](c3ccccc3)[C@H](c3ccccc3)N1[C@@H]2c1ccc(OCCO)cc1: yes (1)
- COCCCNC(=O)[C@@]1(Cc2ccccc2I)c2ccccc2C(=O)N(Cc2ccccc2OC)[C@H]1c1ccc(CO)cc1: no (0)
- C[C@@]1([C@@H](NS(=O)(=O)c2cccc3cccnc23)c2ccc(-c3ccccc3)cc2)C[C@H]1C1CCCCC1: no (0)

---

# Tested on: Chordin-like protein 2 (CHRDL2)
# assay_procedure: CHRDL2 small-molecule binders, primary screen, biochemical, small-molecule microarray, 635 nm fluorescence (AID 1126);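 note: printed compound slides probed with Chrdl2 protein at 4 µg/mL for 1 h at 4 C; score merges 667 nm emission intensity with signal to noise over three replicate slides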
# assay_context: small-molecule microarray binding, fluorescence 635 nm; higher = more signal
outcome_measure: composite z-score

* CC1CC/C=C\[C@H]2OC34C=CCN(CCN5CCOCC5)C(=O)[C@H]3N(C(CO)C(C)C)C(=O)[C@@H]4C2C(=O)O1 (stereo not given in full) | -0.571
* O=C1C2C=CC(C(O)C3CCCCC3)N(Nc3ccccc3F)C2C(=O)N1c1ccccc1 (stereo not given) | 0.426
* COCCCNC(=O)[C@@]1(Cc2ccccc2I)c2ccccc2C(=O)N(Cc2ccccc2OC)[C@H]1c1ccc(CO)cc1 | -1.82
* CC(C)c1ccc(NN2C(C(O)c3ccccc3)C=CC3C(=O)N(c4ccccc4)C(=O)C32)cc1 (stereo not given) | -0.747
* CC(C)(C)OC(=O)CC[C@]1(C(=O)N2CCOCC2)COC(c2ccc(OCCCO)cc2)=N1 | -1.17

---

# assay_procedure: MM1S cell viability effects, profiling panel, calcein-AM fluorescence, 48 h, basal (AID 1165);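 note: viability of MM1S multiple myeloma cells under basal unstimulated conditions; test concentration not given here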
# assay_context: higher = more signal
Threshold rule: z-score greater than or equal to -0.5 is criterion met; below that, criterion not met.

• C=C(CC1([C@@H](NP(=O)(c2ccccc2)c2ccccc2)[C@H]2C[C@@H]2CCCC)CC1)c1cccc(OC)c1 = criterion not met
• CCOC(=O)C=C1C[C@@H](c2cccc([N+](=O)[O-])c2)O[C@@H](c2cccc([N+](=O)[O-])c2)O1 = criterion not met
• C=CCNC(=O)[C@@H]1[C@H]2C(=O)O[C@H](c3ccccc3)[C@H](c3ccccc3)N2[C@H](c2ccc(O)cc2)[C@@]12C(=O)N(C(=O)OCCOC)c1ccc(C#CCC(C(=O)OC)C(=O)OC)cc12 = criterion not met
• C[C@]1(C(=O)NCC(F)(F)F)c2ccccc2C(=O)N(Cc2cc(C(F)(F)F)cc(C(F)(F)F)c2)[C@H]1c1ccc(CO)cc1 = criterion met
• O=C1c2ccccc2[C@](Cc2ccccc2I)(C(=O)NCCN2CCOCC2)[C@H](c2ccc(CO)cc2)N1Cc1ccccc1C(F)(F)F = criterion not met
• COC(=O)Cn1c(C(=O)N(C)C)cc2c1C[C@H]1CN(C(=O)c3ccccc3)[C@@](Cc3ccccc3)(C(=O)OC)[C@@H]21 = criterion met
• O=C1OCC=C[C@H]2OC34C=CCN(Cn5nnc6ccccc65)C(=O)[C@H]3N(CCO)C(=O)[C@@H]4[C@@H]12 (some centres undefined) = criterion met
• COC(=O)[C@@]1(Cc2ccc(F)cc2)[C@H]2c3cc(C(=O)N4CCCC4)n(Cc4ccc(OC(F)(F)F)cc4)c3C[C@H]2CN1C(=O)c1ccccc1 = criterion not met
• C=C(CCCC)C(=O)CC[C@H](OC(=O)c1ccccc1-c1ccccc1C(=O)O)c1cccc(OCCO)c1 = criterion not met
• C=C(C(=O)CC[C@@H](OC(=O)c1cccnc1)c1cccc(OCCO)c1)C(C)C = criterion not met
• OCCCc1cc[n+](Cc2cc3c(cc2Br)OCO3)cc1 = criterion met
• COC(=O)C(CC#Cc1ccc2c(c1)[C@]1(C(=O)N2)[C@H](c2ccccc2OCCO)N2[C@H](c3ccccc3)[C@H](c3ccccc3)OC(=O)[C@H]2[C@@H]1C(=O)N1CCN(c2ncccn2)CC1)C(=O)OC = criterion not met
• COc1ccc(C#Cc2ccc3c(c2)[C@]2(C(=O)N3)[C@H](c3ccccc3OCCO)N3[C@H](c4ccccc4)[C@H](c4ccccc4)OC(=O)[C@H]3[C@@H]2C(=O)NC[C@H](O)c2ccccc2)cc1 = criterion not met
• C=CC[C@]1(C(=O)NCC(O)CO)N=C(c2ccc(OCCCO)cc2)O[C@H]1c1ccccc1CN=[N+]=[N-] (some centres undefined) = criterion met
• CC1CC/C=C\[C@H]2OC34C=CCN(CCN5CCOCC5)C(=O)[C@H]3N(C(CO)C(C)C)C(=O)[C@@H]4C2C(=O)O1 (some centres undefined) = criterion not met
• CC(C)C[C@H]1NC(=O)CNC(=O)[C@@]23C(=O)N[C@@H](Cc4ccccc4)C2[C@H](C)[C@@]2(C)O[C@H]2C3/C=C/C/C=C\CNC1=O (some centres undefined) = criterion met
• C[N+](C)(C)CCCC[C@@H]1NC(=O)[C@H]2C[C@@H](C(=O)O)[C@@H](c3ccc(O)cc3)N2C1=O = criterion not met
• O=C(NC1CC1)[C@@H]1c2ccccc2C(=O)N(C2CCCCC2)[C@H]1c1ccc(CO)cc1 = criterion not met
• O=C1N(Cc2ccccc2)Cc2ccccc2C[C@@]12COC(c1ccc(OCCCO)cc1)=N2 = criterion not met
• COc1ccc(C(O)C2C=CC3C(=O)N(c4ccccc4)C(=O)C3N2Nc2ccccc2F)c2ccccc12 (centres undefined) = criterion not met
• C=C(C(=O)CC[C@@H](OC(=O)c1ccccc1-c1ccccc1C(=O)O)c1cccc(OCCO)c1)C(C)C = criterion met
• CCOC(=O)C[C@H]1[C@H](OC(=O)c2cc3ccccc3oc2=O)[C@@H](NC(=O)Cc2ccc(OC)cc2)c2cc(OCCCO)ccc2N1C(=O)Cc1ccc(OC)cc1 = criterion met
• COc1cc(Cc2cc3c(c(-c4ccccc4)n2)[Si](C(C)C)(C(C)C)OC3)cc(OC)c1OC = criterion not met
• [N-]=[N+]=Nc1ccccc1C[C@]1(C(N)=O)COC(c2ccc(OCCCO)cc2)=N1 = criterion met
• CCCCC(=C=CC[C@@H](O)c1ccccc1OCCO)C[C@@H](O)c1ccccn1 = criterion met
• CCCCCCCCCCC(O)C1C=CC2C(=O)N(C)C(=O)C2N1Nc1ccccc1 (centres undefined) = criterion not met
• [N-]=[N+]=NCc1ccccc1C[C@@]1(C(=O)NCCN2CCOCC2)N=C(c2ccc(OCCCO)cc2)O[C@@H]1c1ccccc1 = criterion not met
• COCCOC(=O)N1C(=O)[C@@]2(c3cc(C#CC4=CCCCC4)ccc31)[C@H](c1ccc(O)cc1)N1[C@H](c3ccccc3)[C@H](c3ccccc3)OC(=O)[C@H]1[C@@H]2C(=O)N1CCc2cc(OC)c(OC)cc2C1 = criterion met
• COc1ccc(CCNC(=O)[C@@]2(C)c3ccccc3C(=O)N(Cc3ccc(OC(F)(F)F)cc3)[C@H]2c2ccc(CO)cc2)cc1 = criterion not met
